- experimentalSystem: human serum albumin (HSA) (Homo sapiens)
- Sequence (P02768 25-609): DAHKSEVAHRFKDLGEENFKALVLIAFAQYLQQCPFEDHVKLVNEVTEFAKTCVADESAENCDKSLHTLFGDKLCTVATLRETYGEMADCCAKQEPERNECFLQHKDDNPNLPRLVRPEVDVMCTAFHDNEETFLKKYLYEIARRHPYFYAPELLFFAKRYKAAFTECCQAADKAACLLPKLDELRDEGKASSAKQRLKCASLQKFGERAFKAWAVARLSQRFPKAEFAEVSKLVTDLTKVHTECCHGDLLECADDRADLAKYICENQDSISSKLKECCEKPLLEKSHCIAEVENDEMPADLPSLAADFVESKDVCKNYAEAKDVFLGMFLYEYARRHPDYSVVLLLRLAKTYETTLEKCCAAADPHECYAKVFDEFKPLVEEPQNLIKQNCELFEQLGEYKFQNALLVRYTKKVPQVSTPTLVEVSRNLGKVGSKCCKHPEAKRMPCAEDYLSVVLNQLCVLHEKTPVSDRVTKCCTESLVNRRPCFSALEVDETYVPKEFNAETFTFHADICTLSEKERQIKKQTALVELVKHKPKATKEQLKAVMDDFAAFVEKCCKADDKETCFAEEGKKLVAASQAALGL
- testProtocol: Biolayer interferometry (BLI) binding to biotinylated HSA
- testSettings: pH 7.4
pKd values, listed per item
Please express pKd as -log10 of the molar concentration.

| smilesNotation | pKd |
| --- | --- |
| Cc1cc(-c2ccc(NC(=O)CN3CCN(CC(=O)O)CCN(CC(=O)Nc4ccc(-c5ccc(N=Nc6ccc7c(S(=O)(=O)O)cc(S(=O)(=O)O)c(N)c7c6O)c(C)c5)cc4C)CC3)c(C)c2)ccc1N=Nc1ccc2c(S(=O)(=O)O)cc(S(=O)(=O)O)c(N)c2c1O | 5.74 |

In the following, a different molecule is considered.
get_value(item= "Cc1cc(-c2ccc(NC(=O)CN3CCN(CC(=O)O)CCN(CC(=O)O)CC3)c(C)c2)ccc1N=Nc1ccc2c(S(=O)(=O)O)cc(S(=O)(=O)O)c(N)c2c1O" , readout=pKd) returns 4.10

Source listed as patent US20220017495A1.
